Recorded half-life values for a group of molecules are listed next.
# Tested on: chymotrypsin
# EXPERIMENTAL_DETAILS: Chymotrypsin degradation half-life was determined
# Type: ADME
Square brackets hold non-standard residues; d marks the D form. Peptide text beside a SMILES is read from it. 1Nal = N[C@@H](Cc1cccc2ccccc12)C(=O)O; NMeF = CN[C@@H](Cc1ccccc1)C(=O)O; pGlu = O=C1CC[C@@H](C(=O)O)N1; NMeS = CN[C@@H](CO)C(=O)O
VALUE_TYPE: half-life

INSERT INTO measurements (molecule, result) VALUES
  ('CC(C)C[C@H](NC(=O)[C@@H](Cc1ccc2ccccc2c1)NC(=O)[C@H](Cc1ccc(O)cc1)NC(=O)[C@H](CO)N(C)C(=O)[C@H](Cc1c[nH]c2ccccc12)NC(=O)[C@H](Cc1c[nH]cn1)NC(=O)[C@@H]1CCC(=O)N1)C(=O)N[C@@H](CCCN=C(N)N)C(=O)N1CCC[C@H]1C(=O)NCC(N)=O', '> 60 min'),
  ('CCNC(=O)[C@@H]1CCCN1C(=O)[C@H](CCCN=C(N)N)NC(=O)[C@H](CC(C)C)NC(=O)[C@@H](CC(C)C)NC(=O)[C@H](Cc1ccc(O)cc1)NC(=O)[C@H](CO)NC(=O)[C@H](Cc1cccc2ccccc12)NC(=O)[C@H](Cc1c[nH]cn1)NC(=O)[C@@H]1CCC(=O)N1 ([pGlu]H[1Nal]SY[dL]LRP-NHEt)', '> 15 min'),
  ('CCNC(=O)[C@@H]1CCCN1C(=O)[C@H](CCCN=C(N)N)NC(=O)[C@H](CC(C)C)NC(=O)[C@@H](CC(C)C)NC(=O)[C@H](Cc1ccc(O)cc1)NC(=O)[C@H](CO)NC(=O)[C@H](Cc1cccc2ccccc12)N(C)C(=O)[C@H](Cc1c[nH]cn1)NC(=O)[C@@H]1CCC(=O)N1', '> 60 min'),
  ('CCNC(=O)[C@@H]1CCCN1C(=O)[C@H](CCCN=C(N)N)NC(=O)C(CC(C)C)NC(=O)C(CC(C)C)NC(=O)[C@H](Cc1ccc(O)cc1)NC(=O)[C@H](CO)NC(=O)[C@H](Cc1c[nH]c2ccccc12)NC(=O)[C@H](Cc1c[nH]cn1)N(C)C(=O)[C@@H]1CCC(=O)N1 (stereo in doubt)', '7 min'),
  ('CCNC(=O)[C@@H]1CCCN1C(=O)[C@H](CCCN=C(N)N)NC(=O)C(CC(C)C)NC(=O)C(CC(C)C)NC(=O)[C@H](Cc1ccc(O)cc1)NC(=O)[C@H](CO)NC(=O)[C@H](Cc1c[nH]c2ccccc12)NC(=O)[C@H](Cc1ccccc1)N(C)C(=O)[C@@H]1CCC(=O)N1 (stereo in doubt)', '6 min'),
  ('CCNC(=O)[C@@H]1CCCN1C(=O)[C@H](CCCN=C(N)N)NC(=O)[C@H](CC(C)C)NC(=O)[C@@H](CC(C)C)N(C)C(=O)[C@H](Cc1ccc(O)cc1)NC(=O)[C@H](CO)NC(=O)[C@H](Cc1c[nH]c2ccccc12)NC(=O)[C@H](Cc1cnc[nH]1)NC(=O)[C@@H]1CCC(=O)N1', '1 min'),
  ('CC(C)C[C@H](NC(=O)[C@@H](Cc1ccc2ccccc2c1)NC(=O)[C@H](Cc1ccc(O)cc1)NC(=O)[C@H](CO)NC(=O)[C@H](Cc1c[nH]c2ccccc12)NC(=O)[C@H](Cc1cnc[nH]1)NC(=O)[C@@H]1CCC(=O)N1)C(=O)N[C@@H](CCCNC(=N)N)C(=O)N1CCC[C@H]1C(=O)NCC(N)=O', '0.5 min'),
  ('CCNC(=O)[C@@H]1CCCN1C(=O)[C@H](CCCN=C(N)N)NC(=O)[C@H](CC(C)C)NC(=O)[C@@H](CC(C)C)NC(=O)[C@H](Cc1ccc(O)cc1)NC(=O)[C@H](CO)N(C)C(=O)[C@H](Cc1c[nH]c2ccccc12)NC(=O)[C@H](Cc1c[nH]cn1)NC(=O)[C@@H]1CCC(=O)N1 ([pGlu]HW[NMeS]Y[dL]LRP-NHEt)', '> 60 min'),
  ('CCNC(=O)[C@@H]1CCCN1C(=O)[C@H](CCCN=C(N)N)N(C)C(=O)[C@H](CC(C)C)NC(=O)[C@@H](CC(C)C)NC(=O)[C@H](Cc1ccc(O)cc1)NC(=O)[C@H](CO)NC(=O)[C@H](Cc1c[nH]c2ccccc12)NC(=O)[C@H](Cc1c[nH]cn1)NC(=O)[C@@H]1CCC(=O)N1', '1 min'),
  ('CC(C)C[C@H](NC(=O)[C@@H](CC(C)C)NC(=O)[C@H](Cc1ccc(O)cc1)NC(=O)[C@H](CO)NC(=O)[C@H](Cc1c[nH]c2ccccc12)NC(=O)[C@H](Cc1c[nH]cn1)NC(=O)[C@@H]1CCC(=O)N1)C(=O)N[C@@H](CCCN=C(N)N)C(=O)N1CCC[C@H]1C(=O)N(C)CC(N)=O', '1 min'),
  ('CCNC(=O)[C@@H]1CCCN1C(=O)[C@H](CCCN=C(N)N)NC(=O)[C@H](CC(C)C)NC(=O)[C@@H](Cc1c[nH]c2ccccc12)NC(=O)[C@H](Cc1ccc(O)cc1)NC(=O)[C@H](CO)NC(=O)[C@H](Cc1c[nH]c2ccccc12)NC(=O)[C@H](Cc1ccccc1)N(C)C(=O)[C@@H]1CCC(=O)N1 ([pGlu][NMeF]WSY[dW]LRP-NHEt)', '3.7 min'),
  ('CCNC(=O)[C@@H]1CCCN1C(=O)[C@H](CCCN=C(N)N)NC(=O)[C@H](CC(C)C)N(C)C(=O)[C@@H](CC(C)C)NC(=O)[C@H](Cc1ccc(O)cc1)NC(=O)[C@H](CO)NC(=O)[C@H](Cc1c[nH]c2ccccc12)NC(=O)[C@H](Cc1c[nH]cn1)NC(=O)[C@@H]1CCC(=O)N1', '1 min'),
  ('CCNC(=O)[C@@H]1CCCN1C(=O)[C@H](CCCNC(=N)N)NC(=O)[C@H](CC(C)C)NC(=O)[C@@H](CC(C)C)NC(=O)[C@H](Cc1ccc(O)cc1)NC(=O)[C@H](CO)NC(=O)[C@H](Cc1c[nH]c2ccccc12)NC(=O)[C@H](Cc1c[nH]cn1)NC(=O)[C@@H]1CCC(=O)N1 [LEUPROLIDE]', '1 min'),
  ('CC(C)C[C@H](NC(=O)[C@@H](Cc1ccc2ccccc2c1)NC(=O)[C@H](Cc1ccc(O)cc1)N(C)C(=O)[C@H](CO)NC(=O)[C@H](Cc1c[nH]c2ccccc12)NC(=O)[C@H](Cc1c[nH]cn1)NC(=O)[C@@H]1CCC(=O)N1)C(=O)N[C@@H](CCCN=C(N)N)C(=O)N1CCC[C@H]1C(=O)NCC(N)=O', '> 60 min'),
  ('CCNC(=O)[C@@H]1CCCN1C(=O)[C@H](CCCN=C(N)N)NC(=O)[C@H](CC(C)C)NC(=O)[C@@H](CC(C)C)NC(=O)[C@H](Cc1ccc(O)cc1)N(C)C(=O)[C@H](CO)NC(=O)[C@H](Cc1c[nH]c2ccccc12)NC(=O)[C@H](Cc1cnc[nH]1)NC(=O)[C@@H]1CCC(=O)N1', '> 60 min');

---

clearance for assorted molecules
# EXPERIMENTAL_DETAILS: Clearance in rat after iv dose (100 ug/kg)
# Type: ADME, organism-based
# SETUP_CONDITIONS: in vivo, 0.1 mg/kg
VALUE_TYPE: clearance (L/h/kg)

INSERT INTO assay_data (cpd_smiles, value_type, numeric_value) VALUES
  ('CC(C)C[C@H](NC(=O)[C@@H](Cc1ccc2ccccc2c1)NC(=O)[C@H](Cc1ccc(O)cc1)NC(=O)[C@H](CO)NC(=O)[C@H](Cc1c[nH]c2ccccc12)NC(=O)[C@H](Cc1c[nH]cn1)NC(=O)[C@@H]1CCC(=O)N1)C(=O)N[C@@H](CCCN=C(N)N)C(=O)N1CCC[C@H]1C(=O)N(C)CC(N)=O', 'clearance', 0.213),
  ('CCNC(=O)[C@@H]1CCCN1C(=O)[C@H](CCCN=C(N)N)N(C)C(=O)[C@H](CC(C)C)NC(=O)[C@@H](Cc1c[nH]c2ccccc12)NC(=O)[C@H](Cc1ccc(O)cc1)NC(=O)[C@H](CO)NC(=O)[C@H](Cc1c[nH]c2ccccc12)NC(=O)[C@H](Cc1c[nH]cn1)NC(=O)[C@@H]1CCC(=O)N1', 'clearance', 1.5),
  ('CCNC(=O)[C@@H]1CCCN1C(=O)[C@H](CCCN=C(N)N)NC(=O)[C@H](CC(C)C)NC(=O)[C@@H](CC(C)C)N(C)C(=O)[C@H](Cc1ccc(O)cc1)NC(=O)[C@H](CO)NC(=O)[C@H](Cc1c[nH]c2ccccc12)NC(=O)[C@H](Cc1cnc[nH]1)NC(=O)[C@@H]1CCC(=O)N1', 'clearance', 1.26),
  ('CC(C)C[C@H](NC(=O)[C@@H](Cc1ccc2ccccc2c1)NC(=O)[C@H](Cc1ccc(O)cc1)NC(=O)[C@H](CO)NC(=O)[C@H](Cc1c[nH]c2ccccc12)NC(=O)[C@H](Cc1c[nH]cn1)NC(=O)[C@@H]1CCC(=O)N1)C(=O)N(C)[C@@H](CCCN=C(N)N)C(=O)N1CCC[C@H]1C(=O)NCC(N)=O', 'clearance', 0.232),
  ('CC(C)C[C@H](NC(=O)[C@@H](Cc1c[nH]c2ccccc12)NC(=O)[C@H](Cc1ccc(O)cc1)NC(=O)[C@H](CO)NC(=O)[C@H](Cc1c[nH]c2ccccc12)NC(=O)[C@H](Cc1c[nH]cn1)NC(=O)[C@@H]1CCC(=O)N1)C(=O)N[C@@H](CCCN=C(N)N)C(=O)N1CCC[C@H]1C(=O)N(C)CC(N)=O', 'clearance', 0.259);
